B1: KCNAB2 (parent)
chain: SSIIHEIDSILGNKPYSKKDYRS

Variants of: B1
method_notes: protein stability index of a GFP-peptide fusion (GPS, HEK-293T) (PSI 1-6); higher = more stable;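 note: lentivirally expressed fusions sorted by FACS into six bins by GFP to DsRed ratio, PSI derived from sequencing read proportions per bin multiplied by bin number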
conditions_used: c terminus: native
Think of 4 as a floor: if protein stability index stands on it or above, it is yes (1); beneath it, no (0).

mutation_descriptor | label_value
N13W | no (0)

Does the variant I4R have recorded protein stability index that is 4 or more? no (0)

Does the variant I7N have recorded protein stability index that is 4 or more? yes (1)

Does the variant Y21N have recorded protein stability index that is 4 or more? no (0)

Does the variant G12K have recorded protein stability index that is 4 or more? no (0)

Does the variant L11R have recorded protein stability index that is 4 or more? yes (1)

Does the variant L11F have recorded protein stability index that is 4 or more? no (0)
